All values here come from patent US20120172293A1.

Listing of recorded GBA EC50 Ratio (vs PYY(3-36)), [35S]GTPγS by entry.
Study system: human Y2 receptor (human) (UniProt P49146)
Sequence (P49146 whole entry): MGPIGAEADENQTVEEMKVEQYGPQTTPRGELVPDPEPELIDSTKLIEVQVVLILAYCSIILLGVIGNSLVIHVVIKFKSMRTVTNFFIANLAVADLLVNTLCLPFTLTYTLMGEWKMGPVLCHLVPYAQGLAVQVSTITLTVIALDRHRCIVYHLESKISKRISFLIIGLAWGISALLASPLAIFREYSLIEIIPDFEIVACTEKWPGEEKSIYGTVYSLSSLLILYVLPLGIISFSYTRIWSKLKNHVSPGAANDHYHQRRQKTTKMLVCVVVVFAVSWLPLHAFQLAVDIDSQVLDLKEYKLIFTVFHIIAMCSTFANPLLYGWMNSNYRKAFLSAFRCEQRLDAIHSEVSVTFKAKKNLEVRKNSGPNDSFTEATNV
Experimental details: cell-based or functional assay
Starred links: 1 amine or outer side, 2 acyl side, 3 side chain; linkers in the order of their positions; H or OH if unused. Non-standard residues stand in square brackets, D forms with d. *: point of attachment. Azetidine3carboxylic = O=C(C1CN([*:1])C1)[*:2]; Cha = N[C@@H](CC1CCCCC1)C(=O)O; Isobutyryl = CC(C)C(=O)*; Abu = CC[C@H](N)C(=O)O; Aib = CC(C)(N)C(=O)O
Result type: GBA EC50 Ratio (vs PYY(3-36)), [35S]GTPγS

[
  {
    "Binder": "Isobutyryl-R[Abu]G[Cha]NL[Aib]TRQR[Cha]-NH2 (SMILES CC[C@H](NC(=O)[C@H](CCCNC(=N)N)NC(=O)C(C)C)C(=O)NCC(=O)N[C@@H](CC1CCCCC1)C(=O)N[C@@H](CC(N)=O)C(=O)N[C@@H](CC(C)C)C(=O)NC(C)(C)C(=O)N[C@H](C(=O)N[C@@H](CCCNC(=N)N)C(=O)N[C@@H](CCC(N)=O)C(=O)N[C@@H](CCCNC(=N)N)C(=O)N[C@@H](CC1CCCCC1)C(N)=O)[C@@H](C)O) [Isobutanoyl-[Abu26, Gly27, Cha28,36, Aib31]-PYY(25-36)]",
    "Quantitative readout": 49
  },
  {
    "Binder": "Ac-S[Azetidine3carboxylic]RH[Cha][Cha]NL[Aib]TRQR[Cha]-NH2 (SMILES CC(=O)N[C@@H](CO)C(=O)N1CC(C(=O)N[C@@H](CCCNC(=N)N)C(=O)N[C@@H](Cc2c[nH]cn2)C(=O)N[C@@H](CC2CCCCC2)C(=O)N[C@@H](CC2CCCCC2)C(=O)N[C@@H](CC(N)=O)C(=O)N[C@@H](CC(C)C)C(=O)NC(C)(C)C(=O)N[C@H](C(=O)N[C@@H](CCCNC(=N)N)C(=O)N[C@@H](CCC(N)=O)C(=O)N[C@@H](CCCNC(=N)N)C(=O)N[C@@H](CC2CCCCC2)C(N)=O)[C@@H](C)O)C1) [Ac-[Aze(3)24, Cha27,28,36, Aib31]-PYY(23-36)]",
    "Quantitative readout": 4.7
  }
]
